# reported β-Cat FP Hill slope; entries follow
target: β-catenin (Homo sapiens); assay: KD50 measurement using competitive fluorescence polarization (FP) with labelled TCF4; format: binding; details: fluorescence polarization, β-catenin
Sequence (P35222 whole entry): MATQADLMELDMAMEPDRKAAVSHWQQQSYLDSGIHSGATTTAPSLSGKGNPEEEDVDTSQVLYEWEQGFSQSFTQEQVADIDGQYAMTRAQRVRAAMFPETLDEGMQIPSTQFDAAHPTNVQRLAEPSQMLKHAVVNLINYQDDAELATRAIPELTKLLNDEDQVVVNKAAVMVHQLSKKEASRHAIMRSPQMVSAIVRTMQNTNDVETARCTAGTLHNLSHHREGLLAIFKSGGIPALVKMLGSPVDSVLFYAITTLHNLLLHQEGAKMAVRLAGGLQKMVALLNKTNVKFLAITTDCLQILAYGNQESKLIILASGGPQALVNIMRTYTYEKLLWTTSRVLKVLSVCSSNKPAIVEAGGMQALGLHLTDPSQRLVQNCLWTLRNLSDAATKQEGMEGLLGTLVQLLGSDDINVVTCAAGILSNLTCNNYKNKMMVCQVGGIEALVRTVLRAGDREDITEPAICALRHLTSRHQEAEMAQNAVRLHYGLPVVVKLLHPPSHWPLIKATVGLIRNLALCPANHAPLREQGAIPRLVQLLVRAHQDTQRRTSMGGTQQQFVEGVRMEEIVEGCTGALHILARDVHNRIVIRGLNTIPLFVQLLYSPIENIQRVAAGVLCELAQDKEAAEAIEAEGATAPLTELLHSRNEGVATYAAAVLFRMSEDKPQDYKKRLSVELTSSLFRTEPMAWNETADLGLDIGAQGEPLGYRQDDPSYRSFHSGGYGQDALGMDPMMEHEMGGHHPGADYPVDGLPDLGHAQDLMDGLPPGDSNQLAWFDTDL
Where a SMILES comes first, the peptide text is derived from it.
Please give the numeric answer without any surrounding text.

compound	β-Cat FP Hill slope
CC[C@H](C)[C@H](NC(=O)[C@H](CC(C)C)NC(=O)[C@H](Cc1ccccc1)NC(=O)[C@H](Cc1c[nH]c2ccccc12)NC(=O)[C@@H](N)CCSC)C(=O)N[C@@H](CS)C(=O)N[C@@H](C)C(=O)N[C@@H](Cc1c[nH]c2ccccc12)C(=O)NCC(=O)O [compound 211] (H-MWFLICAWG-OH)	0.67

Note to self: β-Cat FP Hill slope recorded for CC[C@H](C)[C@H](NC(=O)[C@H](CC(C)C)NC(=O)[C@H](Cc1ccccc1)NC(=O)[C@H](Cc1c[nH]c2ccccc12)NC(=O)[C@@H](N)CCSC)C(=O)N[C@@H](CO)C(=O)N[C@@H](Cc1ccccc1)C(=O)N[C@@H](Cc1c[nH]c2ccccc12)C(=O)NCC(=O)O [compound 17] (H-MWFLISFWG-OH) was 1.66
